B1: tRNA (parent)
chain: GUUCCGUUGGCGUAAUGGUAACGCGUCUCCCUCCUAAGGAGAAGACUGCGGGUUCGAGUCCCGUACGGAACG

Variants of: B1
Test: yeast fitness relative to wild type (ratio to wild type); higher = fitter; tRNA-Arg(CCU), competitive growth, 37 C, YPD
Fewer inactive variants are shown than the library holds.
I would appreciate it if you labelled entries true when yeast fitness is 0.6 or higher, otherwise false.

Some entries whose results are on file:
G12A A20G C24U C27A A70U : false
G17C U53A C60A G67A : false
A37U U53G G56A A70C : false
C4U A20G A45U C49U C61U C62G A69C : false
C11G C27G C66U : false

Form field: yeast fitness at least 0.6? Entry: C4G U8C C22G A42C
false
